Numbers sourced from patent US11358953B2.

assayed.target: SARS-CoV-2 3CL-protease (Severe acute respiratory syndrome coronavirus 2 (2019-nCoV) (SARS-CoV-2), UniProt P0DTD1)
procedure.details: SARS-CoV-2 3C-like (3CL) protease fluorescence assay (FRET)
run.conditions: recombinant SARS-CoV-2 3CL-protease 10 nM, 30 min preincubation at RT, substrate 40 μM, duplicate
attribute.measured: IC50

The reported IC50 of the molecule CC1(C)[C@@H]2[C@@H](C(=O)N[C@H](C#N)C[C@@H]3CCNC3=O)N(C(=O)c3cc4cc(F)cc(F)c4[nH]3)C[C@@H]21 [Ex16] was 100 to 1000 nM

The measured IC50 associated with CC(=O)N[C@H](C(=O)N1C[C@H]2[C@@H]([C@H]1C(=O)N[C@H](C#N)C[C@@H]1CCNC1=O)C2(C)C)C(C)(C)C [Ex29] reads < 100 nM

---

Overview of recorded pIC50 for various compounds
assayed.target: SARS-CoV-2 3CL-protease (Severe acute respiratory syndrome coronavirus 2 (2019-nCoV) (SARS-CoV-2))
procedure.details: SARS-CoV-2 3C-like (3CL) protease fluorescence assay (FRET)
Format: biochemical
run.conditions: recombinant SARS-CoV-2 3CL-protease 10 nM, 30 min preincubation at RT, substrate 40 μM, duplicate
pIC50: −log10 of the molar value.

Example compounds with recorded pIC50:
1) COc1cccc2[nH]c(C(=O)N3C[C@@H]4CCC[C@@H]4[C@H]3C(=O)N[C@H](C=O)C[C@@H]3CCNC3=O)cc12: > 7.00
2) O=C(NCc1ccccc1)C(=O)[C@H](C[C@@H]1CCNC1=O)NC(=O)[C@@H]1[C@H]2CCC[C@H]2CN1C(=O)c1cc2c(OC(F)F)cccc2[nH]1: > 7.00
3) CCC(=O)N[C@H](C(=O)N1C[C@H]2[C@@H]([C@H]1C(=O)N[C@H](C#N)C[C@@H]1CCNC1=O)C2(C)C)C(C)(C)C: > 7.00
4) CC1(C)[C@@H]2[C@@H](C(=O)N[C@H](C#N)C[C@@H]3CCNC3=O)N(C(=O)c3cc4c(F)ccc(F)c4[nH]3)C[C@@H]21: 6.00 to 7.00
5) COc1cccc2[nH]c(C(=O)N3C[C@@H]4CCC[C@@H]4[C@H]3C(=O)N[C@@H](C[C@@H]3CCNC3=O)C(=O)COC(=O)c3c(Cl)cccc3Cl)cc12: > 7.00

The compound listed as N#C[C@H](C[C@@H]1CCNC1=O)NC(=O)[C@@H]1[C@H]2CCC[C@H]2CN1C(=O)c1cc2c(Cl)cccc2[nH]1 shows pIC50 equal to 6.00 to 7.00

Measured pIC50 of COc1cccc2[nH]c(C(=O)N3C[C@@H]4CCC[C@@H]4[C@H]3C(=O)N[C@H](C#N)C[C@@H]3CCCNC3=O)cc12 : > 7.00

// CC1(C)[C@@H]2[C@@H](C(=O)N[C@H](C#N)C[C@@H]3CCNC3=O)N(C(=O)c3cc4c(Cl)cccc4o3)C[C@@H]21 : pIC50 value = < 6.00

The compound COc1cccc2[nH]c(C(=O)N3C[C@@H]4CCC[C@@H]4[C@H]3C(=O)N[C@@H](C[C@@H]3CCNC3=O)C(=O)C(=O)NC3CCCCC3)cc12 showed pIC50 equal to > 7.00

Lab book: pIC50 of N#C[C@H](C[C@@H]1CCNC1=O)NC(=O)[C@@H]1C[C@H](Oc2ccccc2)CN1C(=O)c1cc2c(OC(F)F)cccc2[nH]1 noted as < 6.00
